TARGET SYSTEM: APOA1; also: reference of the scale not given here
EXPERIMENT SUMMARY: pooled miR-30 sensor sort-seq; sequence = guide strand
TEST SETTINGS: shRNA
MEASURED METRIC: sensor-assay potency score (higher = more potent)
Respond with the number and no other words.

For orientation, consider the following solved cases.
INPUT SEQUENCE	QUANTITATIVE READOUT
TTTAGCTGTTTTCCCAAGGCGG	-0.584
TTGGCCTTCTCGCTGAGCGTGC	-0.4
TGTCTTTGAGCACATCCACGTA	-1.2

Answer with reported sensor-assay potency score (higher = more potent) of TTGCAGCTCGTGCAGCTTCTGG
-1.14

Provide only the value of recorded sensor-assay potency score (higher = more potent) for TTTGAGCACATCCACGTACACA
-1.01

Supply recorded sensor-assay potency score (higher = more potent) for TGGGACACATAGTCTCTGCCGC here.
-0.692

Entry TAGAGCTCCATCTCCTCCTGCC needs its sensor-assay potency score (higher = more potent) filled in; supply it.
0.375

Give me measured sensor-assay potency score (higher = more potent), please, for this sequence: TTCTTCTGGAAGTCGTCCAGGT
-0.431
